test: BSK_3C_Proliferation: Cell Proliferation Assessment in the BioMAP Diversity Plus: 3C Assay (AID 2283006); settings: primary human endothelial cells (HUVEC);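 on AC50: potency may reflect either rise or fall in cell number versus DMSO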
Calls of active or inactive are those of the source. How the source made its calls: active means hit-call score of the fitted dose curve at least 0.9, where 1 is the maximum; inactive means score below 0.9.
recorded.metric: AC50

// below: answered compounds
Incoming: // query AC50 value for entry CCCCCCCCCC=O
Outgoing: inactive

Incoming: May I ask what AC50 has been recorded for COc1cc(C=O)ccc1OC(=O)C(C)C ?
Outgoing: inactive

Incoming: AC50 lookup needed for O=C1OC2(c3cc(Br)c(O)c(Br)c3Oc3c2cc(Br)c(O)c3Br)c2c(Cl)c(Cl)c(Cl)c(Cl)c21 , thanks.
Outgoing: 8.03 µM (active)

Incoming: Please look up its AC50: O=C(O)c1ccc([N+](=O)[O-])cc1
Outgoing: inactive

Incoming: Quick check: AC50 of c1ccc2c(c1)c1cccc3ccc4cccc2c4c31 ?
Outgoing: inactive

Incoming: Quick check: AC50 of CCCCC(CC)COCCC#N (configuration not stated) ?
Outgoing: 20 µM (active)

For each of the compounds below, note its AC50.
1. CCC(=O)OCc1ccccc1
2. C#C[C@]1(O)CC[C@H]2[C@@H]3CCC4=Cc5oncc5C[C@]4(C)[C@H]3CC[C@@]21C
3. OC1OC[C@@H](O)[C@H](O)[C@H]1O (some centres not stated)
4. C=C[Si](OCC)(OCC)OCC

Outgoing:
["inactive", "20 µM (active)", "inactive", "inactive"]

For each listed entry, give its AC50.
1. OC[C@H]1O[C@H](O[C@]2(CCl)O[C@H](CCl)[C@@H](O)[C@@H]2O)[C@H](O)[C@@H](O)[C@H]1Cl
2. c1ccc2sc(SN(C3CCCCC3)C3CCCCC3)nc2c1

Outgoing:
inactive
8.86 µM (active)
